Below is a list of entries, each paired with its recorded melting point value.

>  <Compound>
CSc1nc2nc(C)cc(C)n2n1

>  <melting point>
156 to 157 °C

$$$$
>  <Compound>
COC(=O)c1ccc(C(=O)OC)c(I)c1

>  <melting point>
81 to 82 °C

$$$$
>  <Compound>
c1ccc(-c2ccc3cc4ccc(-c5ccccc5)nc4cc3n2)cc1

>  <melting point>
279 °C

$$$$
>  <Compound>
C[C@]12CCC(=O)C=C1CC[C@@H]1[C@@H]2CC[C@]2(C)C(=O)CC[C@@]12O

>  <melting point>
256 to 260 °C

$$$$
>  <Compound>
COc1ccc(NC(=O)CS)cc1

>  <melting point>
118 to 119 °C

$$$$
>  <Compound>
O=C(O)c1cccc2c1OCO2

>  <melting point>
224 to 225 °C

$$$$
>  <Compound>
Oc1nc(C2CCCCC2)nn1-c1ccccc1

>  <melting point>
197 °C

$$$$
>  <Compound>
C=CC(=O)OCC(CC)CCCC (stereo not given)

>  <melting point>
-90 °C

$$$$
>  <Compound>
O=C(Cl)N1c2ccccc2Sc2ccccc21

>  <melting point>
168 to 172 °C

$$$$
>  <Compound>
Cc1cc(C(F)(F)F)c(C#N)c(=O)[nH]1

>  <melting point>
233 to 235 °C

$$$$
>  <Compound>
O=Cc1cccc(CBr)c1

>  <melting point>
49 to 51 °C

$$$$
>  <Compound>
CC(C)C(N)=NO

>  <melting point>
60 to 61 °C

$$$$
>  <Compound>
CSc1ncccc1-c1nc(CCl)no1

>  <melting point>
110 to 111 °C

$$$$
>  <Compound>
CN(N=Cc1ccc(Br)cc1)P(=O)(N1CC1)N1CC1

>  <melting point>
118 °C

$$$$
>  <Compound>
CCOP(=S)(OCC)Oc1ccc2c3c(c(=O)oc2c1)CCCC3

>  <melting point>
88.2 °C

$$$$
